List of solubility kinetic values.
conditions: buffer; pH 7.4; 200.0 µM
Value Kind: solubility kinetic

[[record]]
compound = "Cn1cccc1/C=N/NC(=O)CSc1nc2ccccc2[nH]1"
result = "> 47 µg/mL"

[[record]]
compound = "Cc1nccn1CCOc1ccccc1Cl"
result = "33.2 µg/mL"

[[record]]
compound = "Cl.OC(CNCc1ccc(Cl)c(Cl)c1)c1ccccc1 (stereo not given)"
result = "47.7 µg/mL"

[[record]]
compound = "COc1ccccc1C(C)NC(=O)c1ccc(S(=O)(=O)NCc2ccco2)cc1 (stereo not given)"
result = "12.6 µg/mL"

[[record]]
compound = "COc1ccc(-c2csc(-c3ccccc3)n2)c(OC)c1"
result = "3.3 µg/mL"

[[record]]
compound = "COc1ccc(OCC2NCCc3cc(OC)c(OC)cc32)cc1 (stereo not given)"
result = "42 µg/mL"

[[record]]
compound = "CC(C)(C)c1ccc(C(=O)N2CCCC2)s1"
result = "> 35.6 µg/mL"

[[record]]
compound = "O=C1CCCC2=C1C(c1ccccc1)CC(=O)N2c1ccc(F)cc1F (stereo not given)"
result = "45.8 µg/mL"

[[record]]
compound = "O=C(Nc1cccc(OC(=O)N2CCCCC2)c1)N1CCOCC1"
result = "> 50 µg/mL"

[[record]]
compound = "CC(N=C1NC(C)(C)Cc2ccccc21)C(=O)O (stereo not given)"
result = "33.2 µg/mL"

[[record]]
compound = "Br.Fc1ccccc1CNCC1CCCO1 (stereo not given)"
result = "43.1 µg/mL"

[[record]]
compound = "COC(=O)c1cc(S(=O)(=O)N2CCCC2)c(Cl)cc1Cl"
result = "41.8 µg/mL"

[[record]]
compound = "CCNC(=O)C1CCCN1S(=O)(=O)c1ccc2ccccc2c1 (stereo not given)"
result = "> 49.9 µg/mL"

[[record]]
compound = "COc1ccc(C(=O)O)cc1S(=O)(=O)NC(C)C"
result = "> 41 µg/mL"

[[record]]
compound = "O=C(CC1S/C(=N/N=C2CCCCCC2)NC1=O)Nc1ccccc1F (stereo not given)"
result = "> 56.5 µg/mL"

[[record]]
compound = "O=C(CCN1C(=O)c2cccc3cccc(c23)C1=O)NCC1CCCO1 (stereo not given)"
result = "> 52.9 µg/mL"

[[record]]
compound = "CC1CCN(C(=S)NC(=O)c2cccs2)CC1"
result = "> 40.3 µg/mL"

[[record]]
compound = "Cc1cccc(-n2ccc(=O)c(C(=O)O)n2)c1"
result = "> 34.5 µg/mL"

[[record]]
compound = "CCOCCCNC(=O)/C(C#N)=C/c1ccccc1F"
result = "> 41.4 µg/mL"

[[record]]
compound = "O=C(COC(=O)Cc1ccsc1)Nc1ccc(Cl)cc1F"
result = "47.7 µg/mL"

[[record]]
compound = "COc1ccc(CNC(=O)Cn2ccc([N+](=O)[O-])n2)cc1OC"
result = "> 48 µg/mL"

[[record]]
compound = "CCOc1ccc2[nH]c3c(NCC(C)C)ncnc3c2c1"
result = "5.1 µg/mL"

[[record]]
compound = "Fc1cccc(Cl)c1CNc1ccc(N2CCCC2)cc1"
result = "0.7 µg/mL"

[[record]]
compound = "CCOP(=O)(c1ccccc1)C1(C#N)CC1 (stereo not given)"
result = "23 µg/mL"

[[record]]
compound = "Cc1ccc(S(=O)(=O)N2CCCCC2)cc1NS(=O)(=O)c1ccccc1F"
result = "> 61.9 µg/mL"

